# assay.system: recombinant HarmOBP10 (Helicoverpa armigera, UniProt G9I573)
# Sequence (G9I573 entry or part of it): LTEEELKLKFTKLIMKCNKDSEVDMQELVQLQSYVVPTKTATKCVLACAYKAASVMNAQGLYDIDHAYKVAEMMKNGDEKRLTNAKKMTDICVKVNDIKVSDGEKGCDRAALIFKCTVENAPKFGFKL
# assay.explanation: Competitive fluorescence binding assay (displacement of 1-NPN from HarmOBP10)
# settings: authors' comment on Table 1
observation.type: quality as ligand of OBP10, in words

> print(dat)
                      input.smiles          test.result
1          CCCCC/C(C=O)=C/c1ccccc1  Even better ligands
2  CC(C)(C)c1ccc(C(=O)c2ccccc2)cc1  Even better ligands

---

# assay.system: recombinant HarmOBP10 (Helicoverpa armigera)
# assay.explanation: Competitive fluorescence binding assay (displacement of 1-NPN from HarmOBP10)
# settings: max conc 16 (titration 2–16 µM); protein and 1-NPN both 2 µM; percent of fluorescence without competitor; read-out: % at max (percent of fluorescence measured at the maximum concentration)
observation.type: activity at 16 µM (%)
Number in %, nothing else.

Consider the following illustrative entries.
> print(dat)
                                   compound   observation.type  test.result
1                         O=C(O)CCCc1ccccc1  activity at 16 µM           73
2  CC(CC=O)CCCC(C)(C)O (centres unmarked) [Hydroxycitronellal]  activity at 16 µM           48
3  CC(=O)OCCC(C)CCCC(C)C (centres unmarked) [3,7-Dimethyloctyl acetate]  activity at 16 µM           59

Value lookup for activity at 16 µM; key = CC(C)CCCC(C)CCOC(=O)c1ccccc1 (centres unmarked) [3,7-Dimethyloctyl benzoate]
34

# query: activity at 16 µM of entry COc1ccc(-c2ccccc2)cc1
65

Recorded activity at 16 µM for CCCCOC(=O)c1ccccc1 [n-Butyl benzoate] , please?
62

For CC(=O)OCCc1ccccc1 [2-Phenylethyl acetate] , what is its reported activity at 16 µM?
77

Endpoint output: activity at 16 µM of CCCCCCCCCCC(C)=O . Value?
51

What does the data say about its activity at 16 µM? Entry: CC(C)=CCC/C(C)=C/CO
69

Sample CCCCCCCCCCCC(C)=O — what was its activity at 16 µM?
60

---

Entries and their measured activity at 6 µM follow.
# assay.system: recombinant HarmOBP10 (Helicoverpa armigera, UniProt G9I573)
# assay.explanation: Competitive fluorescence binding assay (displacement of 1-NPN from HarmOBP10)
# settings: max conc 6 (titration 0.5–6 µM); protein and 1-NPN both 2 µM; percent of fluorescence without competitor; read-out: % at max (percent of fluorescence measured at the maximum concentration)
The response must be a number in % with no trailing unit.

Example cases with answers are listed next.
> print(dat)
                                    compound                              assay.system  measurement.unit  test.result
 1                             CCCCCCCCCCCCS  recombinant HarmOBP10 (Helicoverpa armigera, UniProt G9I573)                 %           62
 2   CCCCCCCCCCCCCC(=O)OCC [Ethyl myristate]  recombinant HarmOBP10 (Helicoverpa armigera, UniProt G9I573)                 %           73
 3                               CCCCCCCCCCO  recombinant HarmOBP10 (Helicoverpa armigera, UniProt G9I573)                 %           63
 4       CCCCCCCCCCCC(=O)OCC [Ethyl laurate]  recombinant HarmOBP10 (Helicoverpa armigera, UniProt G9I573)                 %           70
 5  CCCCCCCCCCCCCCCC(=O)OCC [Ethyl palmitate]  recombinant HarmOBP10 (Helicoverpa armigera, UniProt G9I573)                 %           69
 6                           CCCCCCCCCC(=O)O  recombinant HarmOBP10 (Helicoverpa armigera, UniProt G9I573)                 %           62
 7                         CCCCCCCCCCCCCCCCO  recombinant HarmOBP10 (Helicoverpa armigera, UniProt G9I573)                 %           55
 8                       CCCCCCCCCCCCCCCCCCO  recombinant HarmOBP10 (Helicoverpa armigera, UniProt G9I573)                 %           56
 9                            CCCCCCCCCCCCCO  recombinant HarmOBP10 (Helicoverpa armigera, UniProt G9I573)                 %           85
10             CCCCC/C=C\C/C=C\CCCCCCCC(=O)O  recombinant HarmOBP10 (Helicoverpa armigera, UniProt G9I573)                 %           56

Here's the next entry for you.
Which value of activity at 6 µM has been reported for CCCCCCCCCCCC=O in the records?
73
